# TARGET_OF_ASSAY: hTRPA1 (Homo sapiens, UniProt O75762)
# Construct: expressed in transfected cells
# Sequence (O75762 whole entry): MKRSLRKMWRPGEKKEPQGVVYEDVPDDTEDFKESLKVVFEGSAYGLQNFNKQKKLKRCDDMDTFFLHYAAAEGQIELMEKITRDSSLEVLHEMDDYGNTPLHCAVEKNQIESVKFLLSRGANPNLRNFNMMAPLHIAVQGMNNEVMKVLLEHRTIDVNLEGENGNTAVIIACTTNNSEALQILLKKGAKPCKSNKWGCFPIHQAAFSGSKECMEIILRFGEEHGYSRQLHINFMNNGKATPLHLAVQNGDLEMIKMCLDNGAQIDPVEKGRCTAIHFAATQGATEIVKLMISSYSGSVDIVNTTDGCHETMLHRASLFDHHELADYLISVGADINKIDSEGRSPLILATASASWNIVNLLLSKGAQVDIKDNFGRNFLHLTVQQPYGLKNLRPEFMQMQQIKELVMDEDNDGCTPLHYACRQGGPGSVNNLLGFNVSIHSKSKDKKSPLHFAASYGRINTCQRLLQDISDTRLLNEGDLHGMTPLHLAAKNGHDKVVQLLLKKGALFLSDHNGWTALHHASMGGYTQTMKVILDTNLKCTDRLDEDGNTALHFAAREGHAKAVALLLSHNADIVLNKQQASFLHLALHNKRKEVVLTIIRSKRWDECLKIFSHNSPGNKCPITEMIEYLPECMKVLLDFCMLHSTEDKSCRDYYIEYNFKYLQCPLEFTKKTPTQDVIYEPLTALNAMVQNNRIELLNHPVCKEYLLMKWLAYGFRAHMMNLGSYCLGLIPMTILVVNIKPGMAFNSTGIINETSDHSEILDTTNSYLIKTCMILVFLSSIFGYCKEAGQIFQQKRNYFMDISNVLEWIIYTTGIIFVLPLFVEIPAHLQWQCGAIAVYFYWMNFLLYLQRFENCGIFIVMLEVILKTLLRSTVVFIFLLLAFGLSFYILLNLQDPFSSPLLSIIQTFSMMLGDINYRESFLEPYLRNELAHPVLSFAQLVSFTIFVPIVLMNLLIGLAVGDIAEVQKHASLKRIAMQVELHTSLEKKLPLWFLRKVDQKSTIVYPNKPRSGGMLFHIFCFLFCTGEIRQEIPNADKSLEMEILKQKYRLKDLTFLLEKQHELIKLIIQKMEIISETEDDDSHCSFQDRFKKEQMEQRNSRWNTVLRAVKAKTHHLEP
# EXPERIMENT: Cytosolic Ca2+ measurement with Fluo-4 AM on a fluorescence plate reader (FlexStation III), ΔRFU dose-response
# Format: cell-based
# RECORDED_CONDITIONS: hTRPA1-Flp-In 293 stable cells, Fluo-4 AM, ΔRFU, Hill fit, seven independent experiments, mean ± SEM; read-out: EC50 of Ca2+ response
Each record here notes measured pEC50.
Scale for pEC50: -log10 of concentration given in mol/L; no unit attached.

# count of solved cases: 2
# COMPOUND, pEC50
rows = [
    ("C=CCc1ccc(OC)cc1", 2.81),
    ("C=CCc1ccc(OC)c(OC)c1", 3.80),
]

Which pEC50 reading was recorded for the compound COc1ccc(C=O)cc1 ?
3.26

# iterate: COc1ccc(/C=C/C=O)cc1 [trans-p-methoxycinnamaldehyde]
4.53
